biological target: mALDH1a3 (Mus musculus, UniProt Q9JHW9); test: Aldh1a3 enzyme inhibition assay, recombinant mALDH1a3; conditions: resorufin fluorescence, 20° C.
Sequence (Q9JHW9 whole entry): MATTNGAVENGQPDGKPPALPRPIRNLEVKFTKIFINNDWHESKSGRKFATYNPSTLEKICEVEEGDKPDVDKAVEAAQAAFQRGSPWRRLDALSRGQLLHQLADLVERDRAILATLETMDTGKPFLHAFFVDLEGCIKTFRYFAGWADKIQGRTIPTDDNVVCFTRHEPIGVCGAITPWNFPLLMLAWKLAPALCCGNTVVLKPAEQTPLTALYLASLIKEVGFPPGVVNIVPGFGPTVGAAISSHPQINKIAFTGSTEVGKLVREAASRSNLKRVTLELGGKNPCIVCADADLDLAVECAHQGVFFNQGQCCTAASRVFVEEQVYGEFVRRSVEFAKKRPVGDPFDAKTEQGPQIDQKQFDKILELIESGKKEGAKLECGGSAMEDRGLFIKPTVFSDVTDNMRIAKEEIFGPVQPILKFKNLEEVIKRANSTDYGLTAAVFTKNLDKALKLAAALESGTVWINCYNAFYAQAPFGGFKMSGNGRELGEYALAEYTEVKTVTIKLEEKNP
# IC50 per record follows

get_value(item= CCc1cnc(C)cc1C(=O)Nc1ccc2c(c1)CCC(=O)N2 , readout=IC50) returns 250 to 1000 nM

Measured IC50, CC1(C)Cc2cc(Nc3cnc4ccccc4n3)ccc2NC1=O : 100 to 250 nM

Entry CC1(C)Cc2cc(Nc3ccc4ccncc4c3)ccc2NC1=O , IC50 reported as > 5000 nM

// field: IC50; key: Cc1cnccc1C(=O)Nc1ccc2c(c1)CCC(=O)N2 ; value = > 5000 nM

The reported IC50 of the molecule Cc1ccc(Nc2ccc3c(c2)CC(C)(C)C(=O)N3)nc1C was > 5000 nM

Input CCc1cnccc1C(=O)Nc1cc2c(cc1Cl)NC(=O)CC2 . Output IC50: 250 to 1000 nM

Record CC1(C)Cc2cc(Nc3ccc4c(Cl)cccc4n3)ccc2NC1=O , field IC50: 250 to 1000 nM

// sample O=C1CCc2cc(Nc3ccc4ccccc4n3)c(F)cc2N1 , its IC50 was < 100 nM

So for COCc1cnccc1C(=O)Nc1ccc2c(c1)CCC(=O)N2 , the logged IC50 turned out to be > 5000 nM

* * *

Quick list: IC50 per entry.
biological target: mALDH1a3 (Mus musculus, UniProt Q9JHW9); test: Aldh1a3 enzyme inhibition assay, recombinant mALDH1a3; conditions: resorufin fluorescence, 20° C.

Solved cases (2 shown):
>>> df
                                   compound  observed_result
0  Cc1ccccc1C(=O)Nc1ccc2c(c1)CCC(=O)N2 [Compound 13]        1 to 5 µM
1  CCc1cnccc1C(=O)Nc1cc2c(cc1F)NC(=O)CC2(C)C [Compound 40]     0.25 to 1 µM

Observed IC50 on mALDH1a3 (Mus musculus, UniProt Q9JHW9), entry O=C1CCc2cc(NCc3ccccc3)ccc2N1 [Compound 14] , equals > 5 µM

Entry CC1(C)Cc2cc(NC3COc4ccccc4C3)ccc2NC1=O (centres unmarked) [Compound 105] : IC50 on mALDH1a3 (Mus musculus, UniProt Q9JHW9) = > 5 µM

Tested on mALDH1a3 (Mus musculus, UniProt Q9JHW9), the item CCc1cnccc1C(=O)NCc1ccc2c(c1)CCC(=O)N2 [Compound 28] showed IC50 equal to > 5 µM

* * *

# maps each entry to its pIC50
Target: ALDH1a3 (Homo sapiens, UniProt P47895)
Sequence (P47895 whole entry): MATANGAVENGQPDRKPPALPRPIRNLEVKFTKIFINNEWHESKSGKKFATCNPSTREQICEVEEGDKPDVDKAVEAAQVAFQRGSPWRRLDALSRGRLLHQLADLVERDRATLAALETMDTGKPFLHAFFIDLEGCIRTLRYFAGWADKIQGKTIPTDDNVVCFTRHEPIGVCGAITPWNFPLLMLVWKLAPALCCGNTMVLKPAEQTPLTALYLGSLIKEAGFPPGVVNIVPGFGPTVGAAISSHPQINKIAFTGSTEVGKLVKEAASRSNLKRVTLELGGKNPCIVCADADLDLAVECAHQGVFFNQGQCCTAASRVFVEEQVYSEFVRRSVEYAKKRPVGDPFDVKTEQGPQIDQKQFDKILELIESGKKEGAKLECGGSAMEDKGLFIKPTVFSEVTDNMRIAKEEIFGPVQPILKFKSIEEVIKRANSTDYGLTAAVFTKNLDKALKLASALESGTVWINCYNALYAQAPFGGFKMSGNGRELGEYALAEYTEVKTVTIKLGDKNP
Experiment: Aldh1a3 enzyme inhibition assay, recombinant hALDH1a3
Conditions: resorufin fluorescence, 20° C.
Text: Recombinant enzyme and inhibitor added immediately before assay. Reaction rate measured by resorufin fluorescence.
pIC50: −log10 of the molar value.

Before answering, review these 5 worked examples.
In [3]: df
Out[3]:
                                 smiles_str  readout  observed_result
0  CC1(C)Cc2cc(Nc3ccc4c(Cl)cccc4n3)ccc2NC1=O    pIC50     6.00 to 6.60
1     Cc1cc(C(=O)Nc2ccc3c(c2)CCC(=O)N3)ccn1    pIC50           < 5.30
2      CCc1cnccc1C(=O)Nc1ccc2c(c1)NC(=O)CC2    pIC50           < 5.30
3  CCc1cnccc1C(=O)Nc1ccc2c(c1)C(F)(F)C(=O)N2    pIC50     5.30 to 6.00
4      CCc1cnccc1NC(=O)c1ccc2c(c1)CCC(=O)N2    pIC50           < 5.30

// pIC50 lookup, compound = CCc1cnccc1C(=O)Nc1ccc2c(c1)C(C)(C)CC(=O)N2 , result: 6.00 to 6.60

Memo: CCc1c(C(=O)Nc2ccc3c(c2)CCC(=O)N3)ccnc1C , reported pIC50: 6.00 to 6.60

Record Cc1cccc2ccc(Nc3ccc4c(c3)CC(C)(C)C(=O)N4)nc12 , field pIC50: < 5.30

Form: compound = CC1(C)Cc2cc(Nc3cnc4ccccc4n3)c(F)cc2NC1=O ; pIC50 = 6.60 to 7.00

Entry CC1(C)Cc2cc(Nc3ccc4c(n3)CCCC4=O)ccc2NC1=O ; pIC50 = 5.30 to 6.00

Noted for CCc1cnc(F)cc1C(=O)Nc1ccc2c(c1)CCC(=O)N2 : its pIC50 reads > 7.00

* * *

Listed below: pIC50 values for each entry.
target: mALDH1a3 (Mus musculus, UniProt Q9JHW9); assay: Aldh1a3 enzyme inhibition assay, recombinant mALDH1a3; settings: resorufin fluorescence, 20° C.
pIC50: −log10 of the molar value.

Completed entries (count: 3):
>>> print(df.to_string())
                                   compound  readout  observed_result
0  CCc1cnccc1C(=O)Nc1ccc2c(c1)C(C)(C)CC(=O)N2 [Compound 19]    pIC50     5.30 to 6.00
1  CCc1cnccc1C(=O)Nc1ccc2c(c1)CC1(CC1)C(=O)N2 [Compound 61]    pIC50     5.30 to 6.00
2  CCc1cnccc1C(=O)Nc1ccc2c(c1)CC(C)(CC)C(=O)N2 (stereo not shown) [Compound 62]    pIC50           < 5.30

The recorded pIC50 for entry CCc1cnccc1C(=O)Nc1cc2ccc(=O)[nH]c2cc1F [Compound 39] equals 5.30 to 6.00

# pIC50 of CC1(C)Cc2cc(Nc3c[nH]c4ccccc4c3=O)ccc2NC1=O [Compound 115] = < 5.30

For reference, reported pIC50 for CCc1cnccc1C(=O)Nc1ccc2c(c1)CC(C)C(=O)N2 (stereo not shown) [Compound 63] stands at 6.00 to 6.60

pIC50 reported for this compound CCc1cnccc1C(=O)Nc1ccc2c(c1)CCC(=O)N2C [Compound 23] : 5.30 to 6.00

// recorded pIC50 for Cc1ccc(C)c(CNc2ccc3c(c2)CCC(=O)N3)c1 [Compound 10] : 5.30 to 6.00

Measured pIC50, CC1(C)Cc2cc(Nc3ccc(Cl)c(Cl)n3)ccc2NC1=O [Compound 97] : < 5.30

Value of pIC50 reported for the compound Cc1cccc2nc(Nc3ccc4c(c3)CCC(=O)N4)ccc12 [Compound 87] is > 7.00

* * *

target: ALDH1a3 (Homo sapiens); experiment: Aldh1a3 enzyme inhibition assay, recombinant hALDH1a3; details: resorufin fluorescence, 20° C.
pIC50: −log10 of the molar value.
Readout: pIC50

Recorded results for 6 molecules are shown here.
>>> df
                                   molecule         subject_of_test  readout  observed_result
0       CC1(C)Cc2cc(Nc3ccc(Cl)cn3)ccc2NC1=O  ALDH1a3 (Homo sapiens)    pIC50           < 5.30
1   CCc1cnccc1C(=O)Nc1cc2c(cc1C#N)NC(=O)CC2  ALDH1a3 (Homo sapiens)    pIC50     6.00 to 6.60
2  CCc1cnccc1C(=O)Nc1ccc2c(c1)CC(C)(C)C(=O)N2  ALDH1a3 (Homo sapiens)    pIC50     6.60 to 7.00
3  CC1(C)Cc2cc(Nc3c[nH]c4ccccc4c3=O)ccc2NC1=O  ALDH1a3 (Homo sapiens)    pIC50           < 5.30
4     CC1(C)Cc2cc(Nc3ccc4cnccc4n3)ccc2NC1=O  ALDH1a3 (Homo sapiens)    pIC50           < 5.30
5  CC(C)c1cnccc1C(=O)Nc1cc2c(cc1F)NC(=O)CC2  ALDH1a3 (Homo sapiens)    pIC50     5.30 to 6.00

Consider the record given below.
Short answer on ALDH1a3 (Homo sapiens) for CCc1c(C(=O)Nc2ccc3c(c2)CCC(=O)N3)cc[nH]c1=O , pIC50: 6.60 to 7.00

* * *

target: mALDH1a3 (Mus musculus); assay: Aldh1a3 enzyme inhibition assay, recombinant mALDH1a3; settings: resorufin fluorescence, 20° C.
Readout: IC50

Record excerpt, results attached:
>>> df
                                   compound          subject_of_test  readout  observed_result
0  CC(C)=Cc1cnc(C)cc1C(=O)Nc1ccc2c(c1)CC(C)(C)C(=O)N2 [Compound 69]  mALDH1a3 (Mus musculus)     IC50        > 5000 nM
1  CCc1cnc(Cl)cc1C(=O)Nc1cc2c(cc1F)NC(=O)CC2 [Compound 80]  mALDH1a3 (Mus musculus)     IC50   250 to 1000 nM
2  CCc1c[nH]c(=O)cc1C(=O)Nc1ccc2c(c1)CCC(=O)N2 [Compound 51]  mALDH1a3 (Mus musculus)     IC50        > 5000 nM
3  Cc1ccc(C(=O)Nc2ccc3c(c2)CCC(=O)N3)cc1C [Compound 11]  mALDH1a3 (Mus musculus)     IC50        > 5000 nM
4  CCc1cnccc1/C=C/c1ccc2c(c1)CCC(=O)N2 [Compound 33]  mALDH1a3 (Mus musculus)     IC50    100 to 250 nM

Field IC50 (mALDH1a3 (Mus musculus)), entry Cc1cc2ccccc2nc1Nc1ccc2c(c1)CC(C)(C)C(=O)N2 [Compound 134] : 250 to 1000 nM

Simply: C=CCc1cnccc1C(=O)Nc1ccc2c(c1)CCC(=O)N2 [Compound 71] , mALDH1a3 (Mus musculus), IC50 = 1000 to 5000 nM
